Overview of recorded pIC50 for various compounds
# system under test: Peptidyl-prolyl cis-trans isomerase FKBP1A (Homo sapiens, UniProt P62942, F36V)
# Sequence (P62942 2-108 F37V limits assumed): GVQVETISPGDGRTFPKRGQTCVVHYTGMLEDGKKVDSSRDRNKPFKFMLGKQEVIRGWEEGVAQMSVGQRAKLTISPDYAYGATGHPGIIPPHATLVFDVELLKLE
# assay info: Inhibition of binding to Phe36Val (F36V) mutant of FK506 binding protein 12
To interpret pIC50, take it as minus log10 of a concentration measured in moles per litre.

Here is how some compounds turned out for pIC50.
compound	value reported
CC[C@H](C(=O)N1CCCC[C@H]1C(=O)O[C@H](CCc1ccc(OC)c(OC)c1)c1cccc(OCC(=O)O)c1)c1cc(OC)c(OC)c(OC)c1 (stereo in doubt; form 1)	8.09
CC[C@H](C(=O)N1CCCC[C@H]1C(=O)O[C@H](CCc1ccccc1)c1cccc(OCC(=O)O)c1)c1cc(OC)c(OC)c(OC)c1	8.26

Query: Kindly state the measured pIC50 obtained for CC[C@@H]1/C=C(\C)C[C@H](C)C[C@H](OC)[C@H]2OC(C(=O)C(=O)N3CCCCC3C(=O)O[C@H](/C(C)=C/[C@@H]3CC[C@@H](O)[C@H](OC)C3)[C@H](C)[C@@H](O)CC1=O)[C@H](C)C[C@H]2OC (stereo partly specified) with Peptidyl-prolyl cis-trans isomerase FKBP1A (Homo sapiens, UniProt P62942, F36V).
Result: 7.92

Query: For CC[C@H](C(=O)N1CCCC[C@H]1C(=O)O[C@H](CCc1ccc(OC)c(OC)c1)c1cccc(OCC(=O)O)c1)c1cc(OC)c(OC)c(OC)c1 (stereo in doubt; form 2) then?
Result: 8.09

Query: Follow-up item: COc1ccc(CC[C@@H](OC(=O)[C@@H]2CCCCN2C(=O)[C@@H](C)c2cc(OC)c(OC)c(OC)c2)c2cccc(OCC(=O)O)c2)cc1OC
Result: 8.09

Query: Moving on to the next compound: CCC(CC)NC(=O)N1CCCC[C@H]1C(=O)O[C@H](CCc1ccc(OC)c(OC)c1)c1cccc(OCC(=O)O)c1
Result: 7.19

----------
# System: HT-1080
# assay info: Compound was induced transcription stably transfected with constructs encoding separate DNA-binding domain and activation domain proteins in HT1080 human fibrosarcoma cells
# Assay type: functional
Collected Expression values appear next to each entry.
# unit: % | format: bare number

Query: Write down the reported Expression of CCC(CC)NC(=O)N1CCCC[C@H]1C(=O)O[C@H](CCc1ccc(OC)c(OC)c1)c1cccc(OCC(=O)NCCNC(=O)COc2cccc([C@@H](CCc3ccc(OC)c(OC)c3)OC(=O)[C@@H]3CCCCN3C(=O)NC(CC)CC)c2)c1 , test system: HT-1080.
Result: 106

Query: Can you check CC[C@H](C(=O)N1CCCC[C@H]1C(=O)O[C@H](CCc1ccc(OC)c(OC)c1)c1cccc(OCC(=O)NCCNC(=O)COc2cccc([C@@H](CCc3ccc(OC)c(OC)c3)OC(=O)[C@@H]3CCCCN3C(=O)[C@@H](CC)c3ccccc3)c2)c1)c1ccccc1 next?
Result: 100

Query: Next compound: COc1ccc(CC[C@@H](OC(=O)[C@@H]2CCCCN2C(=O)Cc2ccccc2)c2cccc(OCC(=O)NCCNC(=O)COc3cccc([C@@H](CCc4ccc(OC)c(OC)c4)OC(=O)[C@@H]4CCCCN4C(=O)Cc4ccccc4)c3)c2)cc1OC
Result: 7

----------
# System: HT-1080
# assay info: Compound was induced transcription stably transfected with constructs encoding separate DNA-binding domain and activation domain proteins in HT1080 human fibrosarcoma cells; No induction
# Type: functional, cell-based

compound	EC50
CO[C@H]1C[C@@H](C)C/C(C)=C/[C@@H](C/C=C/CC2/C=C(\C)C[C@H](C)C[C@H](OC)[C@H]3O[C@@](O)(C(=O)C(=O)N4CCCCC4C(=O)O[C@H](/C(C)=C/[C@@H]4CC[C@@H](O)[C@H](OC)C4)[C@H](C)[C@@H](O)CC2=O)[C@H](C)C[C@H]3OC)C(=O)C[C@H](O)[C@@H](C)[C@@H](/C(C)=C/[C@@H]2CC[C@@H](O)[C@H](OC)C2)OC(=O)C2CCCCN2C(=O)C(=O)C2O[C@H]1[C@H](OC)C[C@H]2C (stereo partly drawn)	No induction
CC[C@H](C(=O)N1CCCC[C@H]1C(=O)O[C@H](CCc1cccnc1)c1cccc(OCC(=O)NCCNC(=O)COc2cccc([C@@H](CCc3cccnc3)OC(=O)[C@@H]3CCCCN3C(=O)[C@@H](CC)c3cc(OC)c(OC)c(OC)c3)c2)c1)c1cc(OC)c(OC)c(OC)c1	No induction
CC[C@H](C(=O)N1CCCC[C@H]1C(=O)O[C@H](CCc1ccc(OC)c(OC)c1)c1cccc(OCC(=O)NCCNC(=O)COc2cccc([C@@H](CCc3ccc(OC)c(OC)c3)OC(=O)[C@@H]3CCCCN3C(=O)[C@@H](CC)c3cc(OC)c(OC)c(OC)c3)c2)c1)c1cc(OC)c(OC)c(OC)c1 (stereo in doubt; form 2)	No induction

----------
This section presents compounds with their documented IC50 values.
# system under test: Peptidyl-prolyl cis-trans isomerase FKBP1A (Homo sapiens, UniProt P62942, F36V)
# assay info: Inhibition of binding to Phe36Val (F36V) mutant of FK506 binding protein 12
Numeric only. Scale: nM

> print(dat)
                            molecule.smiles  metric  display.unit  value.reported
1  CC[C@H](C(=O)N1CCCC[C@H]1C(=O)O[C@H](CCc1ccc(OC)c(OC)c1)c1cccc(OCC(=O)O)c1)c1ccc2c(c1)OCO2    IC50            nM              26

Query: Requested field: IC50. Item: CC[C@H](C(=O)N1CCCC[C@H]1C(=O)O[C@H](CCc1cccnc1)c1cccc(OCC(=O)O)c1)c1cc(OC)c(OC)c(OC)c1
Result: 15

Query: And then CCC(C)(C)C(=O)C(=O)N1CCCC[C@H]1C(=O)O[C@H](CCc1ccc(OC)c(OC)c1)c1cccc(OCC(=O)O)c1 , what is it?
Result: 44

----------
# Tested on: HT-1080
# assay info: Compound was induced transcription in transiently transfected with constructs encoding separate DNA-binding domain and activation domain proteins in HT1080 human fibrosarcoma cells
# Assay type: functional, cell-based
metric: EC50

Query: Given the entry CC[C@H](C(=O)N1CCCC[C@H]1C(=O)O[C@H](CCc1cccnc1)c1cccc(OCC(=O)NCCNC(=O)COc2cccc([C@@H](CCc3cccnc3)OC(=O)[C@@H]3CCCCN3C(=O)[C@@H](CC)c3cc(OC)c(OC)c(OC)c3)c2)c1)c1cc(OC)c(OC)c(OC)c1 , what EC50 was observed with HT-1080?
Result: 82 nM

----------
# System: HT-1080
# assay info: Compound was induced transcription stably transfected with constructs encoding separate DNA-binding domain and activation domain proteins in HT1080 human fibrosarcoma cells
# Format: functional
metric: Expression (%)
Report as a plain number; the unit % is understood.

molecule smiles	system under test	Expression / %
CCC(C)(C)C(=O)C(=O)N1CCCC[C@H]1C(=O)O[C@H](CCc1ccc(OC)c(OC)c1)c1cccc(OCC(=O)NCCNC(=O)COc2cccc([C@@H](CCc3ccc(OC)c(OC)c3)OC(=O)[C@@H]3CCCCN3C(=O)C(=O)C(C)(C)CC)c2)c1	HT-1080	17

Query: Report Expression for CC[C@H](C(=O)N1CCCC[C@H]1C(=O)O[C@H](CCc1ccc(OC)c(OC)c1)c1cccc(OCC(=O)NCCNC(=O)COc2cccc([C@@H](CCc3ccc(OC)c(OC)c3)OC(=O)[C@@H]3CCCCN3C(=O)[C@@H](CC)c3ccc4c(c3)OCO4)c2)c1)c1ccc2c(c1)OCO2 tested on HT-1080.
Result: 53

Where these numbers come from: ChEMBL document CHEMBL1136227
